Measured pIC50, listed per entry.
- ASSAY_SYSTEM: c-Src (Homo sapiens)
- Construct: purchased Life Technologies
- Sequence (P12931 whole entry): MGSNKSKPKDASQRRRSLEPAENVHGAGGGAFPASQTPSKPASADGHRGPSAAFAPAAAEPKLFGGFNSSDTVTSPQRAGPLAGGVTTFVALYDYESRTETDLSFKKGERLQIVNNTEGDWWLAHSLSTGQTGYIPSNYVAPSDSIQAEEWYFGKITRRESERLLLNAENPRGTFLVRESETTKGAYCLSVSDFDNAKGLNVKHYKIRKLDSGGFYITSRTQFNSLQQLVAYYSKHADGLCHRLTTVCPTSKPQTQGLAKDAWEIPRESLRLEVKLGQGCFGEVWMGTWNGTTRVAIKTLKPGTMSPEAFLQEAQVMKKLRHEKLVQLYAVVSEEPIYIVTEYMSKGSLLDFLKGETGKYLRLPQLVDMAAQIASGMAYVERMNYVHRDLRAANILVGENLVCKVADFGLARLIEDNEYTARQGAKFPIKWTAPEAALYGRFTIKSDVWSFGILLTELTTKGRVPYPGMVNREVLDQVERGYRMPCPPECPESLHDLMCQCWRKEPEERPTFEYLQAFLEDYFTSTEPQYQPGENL
- ASSAY_INFO: c-Src enzyme inhibition (Z-LYTE FRET)
- Type: biochemical
- CONDITION_LABEL: Table 2A
pIC50: −log10 of the molar value.
READOUT_LABEL: pIC50

- Cc1ccc(-n2nc(C(C)(C)C)cc2NC(=O)Nc2ccc(OCc3ccnc(Nc4cnc(C(=O)N(C)C)cn4)c3)c3ccccc23)cc1: 5.60
- Cc1ccc(-n2nc(C(C)(C)C)cc2NC(=O)Nc2ccc(OCc3ccnc(Nc4cnc(C)c(C)n4)c3)c3ccccc23)cc1: 6.35
- CNC(=O)c1cnc(Nc2cc(COc3ccc(NC(=O)Nc4cc(C(C)(C)C)nn4-c4ccc(C)cc4)c4ccccc34)ccn2)cn1: 6.45
- COCCNC(=O)c1cnc(Nc2cc(COc3ccc(NC(=O)Nc4cc(C(C)(C)C)nn4-c4ccc(C)s4)c4ccccc34)ccn2)cn1: 7.14
- CCc1ccc(-n2nc(C(C)(C)C)cc2NC(=O)Nc2ccc(OCc3ccnc(Nc4cnccn4)c3)c3ccccc23)cc1: 6.27
- CC(C)(C)c1cc(NC(=O)Nc2ccc(OCc3ccnc(Nc4cnccn4)c3)c3ccccc23)n(-c2ccc(Cl)cc2)n1: 5.10

====

- ASSAY_SYSTEM: p38MAPKγ (MAPK12) (Homo sapiens, UniProt P53778)
- Construct: purchased Life Technologies
- Sequence (P53778 whole entry): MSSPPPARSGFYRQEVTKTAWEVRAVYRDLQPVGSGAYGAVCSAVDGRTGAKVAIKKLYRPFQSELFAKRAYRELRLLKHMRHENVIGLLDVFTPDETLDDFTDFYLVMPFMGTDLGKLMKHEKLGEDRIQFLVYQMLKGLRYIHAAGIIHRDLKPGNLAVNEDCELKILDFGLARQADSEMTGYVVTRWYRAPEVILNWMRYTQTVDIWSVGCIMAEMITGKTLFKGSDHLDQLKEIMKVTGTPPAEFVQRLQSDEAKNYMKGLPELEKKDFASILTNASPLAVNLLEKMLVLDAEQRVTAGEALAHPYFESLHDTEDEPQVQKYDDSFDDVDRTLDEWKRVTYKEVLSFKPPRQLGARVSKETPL
- ASSAY_INFO: p38 MAPKγ enzyme inhibition (Z-LYTE FRET)
- Assay type: biochemical
- CONDITION_LABEL: Table 2B, unit inferred; read-out: p38 MAPKγ (Enzyme Profile)
READOUT_LABEL: IC50 (nM)

- COCc1cccc(-n2nc(C(C)(C)C)cc2NC(=O)Nc2ccc(OCc3ccnc(Nc4cnccn4)c3)c3ccccc23)c1: 52
- Cc1ccc(-n2nc(C(C)(C)C)cc2NC(=O)Nc2ccc(OCc3ccnc(Nc4cnc(C(=O)N5CCC[C@H](O)C5)cn4)c3)c3ccccc23)cc1: 117
- Cc1cccc(-n2nc(C(C)(C)C)cc2NC(=O)Nc2ccc(OCc3ccnc(Nc4cnc(C(=O)N5CC[C@@H](O)C5)cn4)c3)c3ccccc23)c1: 106
- COC1CCN(CCNC(=O)c2cnc(Nc3cc(COc4ccc(NC(=O)Nc5cc(C(C)(C)C)nn5-c5ccc(C)cc5)c5ccccc45)ccn3)cn2)CC1: 117
- Cc1cccc(-n2nc(C(C)(C)C)cc2NC(=O)Nc2ccc(OCc3ccnc(Nc4cnc(C(=O)NCCCO)cn4)c3)c3ccccc23)c1: 95
- CCc1cncc(Nc2cc(COc3ccc(NC(=O)Nc4cc(C(C)(C)C)nn4-c4ccc(C)c(F)c4)c4ccccc34)ccn2)n1: 259
- Cc1ccc(-n2nc(C(C)(C)C)cc2NC(=O)Nc2ccc(OCc3ccnc(Nc4cncc(C5CC5)n4)c3)c3ccccc23)cc1C: 260
- Cc1ccc(-n2nc(C(C)(C)C)cc2NC(=O)Nc2ccc(OCc3ccnc(Nc4cnc(C(=O)N5CCC(C)CC5)cn4)c3)c3ccccc23)cc1: 2510

====

- ASSAY_SYSTEM: p38 MAPKα isoform (MAPK14) (Homo sapiens, UniProt Q16539)
- Construct: purchased Life Technologies
- Sequence (Q16539 whole entry, canonical isoform): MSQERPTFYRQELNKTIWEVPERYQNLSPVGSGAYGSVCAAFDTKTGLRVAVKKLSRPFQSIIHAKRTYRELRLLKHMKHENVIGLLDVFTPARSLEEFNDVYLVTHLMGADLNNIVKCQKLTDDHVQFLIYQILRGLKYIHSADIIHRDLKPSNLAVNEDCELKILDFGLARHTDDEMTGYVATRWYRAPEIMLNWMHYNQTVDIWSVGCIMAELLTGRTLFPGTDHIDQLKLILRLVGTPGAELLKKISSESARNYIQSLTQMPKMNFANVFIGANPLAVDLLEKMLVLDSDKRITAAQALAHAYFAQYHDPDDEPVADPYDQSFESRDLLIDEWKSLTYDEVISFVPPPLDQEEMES
- ASSAY_INFO: p38 MAPKα enzyme inhibition (Z-LYTE FRET)
- Assay type: biochemical
- CONDITION_LABEL: Table 2A; read-out: IC50 Values for Enzyme Inhibition p38 MAPKα
pIC50: −log10 of the molar value.
Measured pIC50, listed per entry.
READOUT_LABEL: pIC50

- CC(C)(C)c1cc(NC(=O)Nc2ccc(OCc3ccnc(Nc4cnccn4)c3)c3ccccc23)n(-c2ccc(Cl)cc2)n1 [Example 45]: 6.92
- COc1ccc(-n2nc(C(C)(C)C)cc2NC(=O)Nc2ccc(OCc3ccnc(Nc4cnccn4)c3)c3ccccc23)cc1 [Example 38]: 7.85
- Cc1ccc(-n2nc(C(C)(C)C)cc2NC(=O)Nc2ccc(OCc3ccnc(Nc4cnc(C(=O)N5CCOCC5)cn4)c3)c3ccccc23)cc1 [Example 35]: 8.05
- Cc1ccc(-n2nc(C(C)(C)C)cc2NC(=O)Nc2ccc(OCc3ccnc(Nc4cnc(CO)cn4)c3)c3ccccc23)s1 [Example 26]: 8.15
- Cc1ccc(-n2nc(C(C)(C)C)cc2NC(=O)Nc2ccc(OCc3ccnc(Nc4cnc(C(=O)NCCN5CCOCC5)cn4)c3)c3ccccc23)cc1 [Example 17]: 8.10
- Cc1cccc(-n2nc(C(C)(C)C)cc2NC(=O)Nc2ccc(OCc3ccnc(Nc4cnccn4)c3)c3ccccc23)c1 [Example 40]: 7.96
- COc1ccc(-n2nc(C(C)(C)C)cc2NC(=O)Nc2ccc(OCc3ccnc(Nc4cnccn4)c3)c3ccccc23)cc1Cl [Example 46]: 7.07
- Cc1ccc(-n2nc(C(C)(C)C)cc2NC(=O)Nc2ccc(OCc3ccnc(Nc4cnc(C(=O)N(C)C)cn4)c3)c3ccccc23)cc1 [Example 9]: 6.87
- CC(C)(C)c1cc(NC(=O)Nc2ccc(OCc3ccnc(Nc4cnccn4)c3)c3ccccc23)n(-c2cccc(F)c2)n1 [Example 49]: 7.96
- Cc1ccc(-n2nc(C(C)(C)C)cc2NC(=O)Nc2ccc(OCc3ccnc(Nc4cnc(C(=O)N5CCCC5)cn4)c3)c3ccccc23)cc1 [Example 36]: 7.72
- COc1ccc(-n2nc(C(C)(C)C)cc2NC(=O)Nc2ccc(OCc3ccnc(Nc4cncc(C5CC5)n4)c3)c3ccccc23)cc1 [Example 22]: 7.66
- Cc1ccc(-n2nc(C(C)(C)C)cc2NC(=O)Nc2ccc(OCc3ccnc(Nc4cnc(C)c(C)n4)c3)c3ccccc23)cc1 [Example 4]: 7.66
